# TEST_TARGET: T1, MMP-26 (human)
# T1 sequence: ASDF
# METHOD_NOTES: cell-based or functional assay
Parameter % Inhibition of JEG-3 cell invasion, 50 µg/ml (further test): see the listing below.
Numbers only here, please. The scale is %.

Q: Please report the recorded % Inhibition of JEG-3 cell invasion, 50 µg/ml (further test) for C04 (antibody, human IgG4, V domains shown) VH: EVQLLESGGGLVQPGGSLRLSCAASGFTFSMYFMVWVRQAPGKGLEWVSWIGSSGGETPYADSVKGRFTISRDNSKNTLYLQMNSLRAEDTAVYYCARGYSSGWYVMGDYWGQGTLVTVSS VL: QSALTQPPSASGTPGQRVTISCSGTSSNIGSHYVFWYQQLPGTAPKLLIHRNDERPSGVPDRFSGSKSGTSASLAISGLQSEDEADYYCATWDDNLNGPVFGGGTKLT .
A: 32

Q: Fill blank: measured % Inhibition of JEG-3 cell invasion, 50 µg/ml (further test) of the binder H6-orig (antibody, human IgG4, V domains shown) VH: EVQLLESGGGLVQPGGSLRLSCAASGFTFSQYWMNWVRQAPGKGLEWVSGIGPSGGITYYADSVKGRFTISRDNSKNTLYLQMNSLRAEDTAVYYCARGEEDGYNSDYWGQGTLVTVSS VL: QSELTQPPSASGSPGQSVTISCTGTSSDVGAYNYVSWYQQHPGKAPKLIIYEVNKRPSGVPDRFSASKSGNTASLTVSGLQAEDEADYYCNSYAGSNSLIFGGGTKLTVLG is ____.
A: 39

Q: // query % Inhibition of JEG-3 cell invasion, 50 µg/ml (further test) value for entry D6-orig (antibody, human IgG4, V domains shown) VH: EVQLLESGGGLVQPGGSLRLSCAASGFTFSMYSMRWVRQAPGKGLEWVSSIYPSGGSTEYADSVKGRFTISRDNSKNTLYLQMNSLRAEDTAVYYCAREGGENDYWGQGTLVTVSS VL: DIQMTQSPLSLSASVGDRVAITCRASQSIDTYLNWYQQKPGKAPKLLIYAASKLEDGVPSRFSGSGTGTDFTLTIRSLQPEDFASYFCQQSYSSPGITFGPGTKVEIKR
A: 35
